Sourced from the NIST ThermoML archive (doi:10.1016/j.jct.2014.01.028)

# condition.details: 333.15 K; 101.33 kPa; Liquid; Alternating current cell with electrodes
# electrical conductivity listing for each entry below

{"columns": ["molecule", "electrical conductivity [S/m]"],
 "data": [
  ["CCCCn1cc[n+](C)c1.c1c[n-]cn1 [1-butyl-3-methylimidazolium imidazolide]", 0.713],
  ["CCn1cc[n+](C)c1.c1c[n-]cn1 [1-ethyl-3-methylimidazolium imidazolide]", 1.69],
  ["C[n+]1ccn(CCCCn2cc[n+](C)c2)c1.c1c[n-]cn1.c1c[n-]cn1", 0.498],
  ["C[n+]1ccn(CCCN)c1.c1c[n-]cn1 [1-(3-aminopropyl)-3-methylimidazolium imidazolide]", 0.738],
  ["C[n+]1ccn(CCO)c1.c1c[n-]cn1 [1-(2-hydroxyethyl)-3-methylimidazolium imidazolide]", 0.0174],
  ["C[n+]1ccn(CCn2cc[n+](C)c2)c1.c1c[n-]cn1.c1c[n-]cn1", 0.254]
]}
